Source listed as patent US20050267024A1.

Target: T1, VEGFR-3-Fc (human, UniProt P35916 25-328)
T1 construct: domain: first three Ig domains; used as conditioned supernatant of 293T cells; also called VEGFR-3-Fc fusion protein; not shown: Fc fragment of the pIg vector
T1 sequence (looked up): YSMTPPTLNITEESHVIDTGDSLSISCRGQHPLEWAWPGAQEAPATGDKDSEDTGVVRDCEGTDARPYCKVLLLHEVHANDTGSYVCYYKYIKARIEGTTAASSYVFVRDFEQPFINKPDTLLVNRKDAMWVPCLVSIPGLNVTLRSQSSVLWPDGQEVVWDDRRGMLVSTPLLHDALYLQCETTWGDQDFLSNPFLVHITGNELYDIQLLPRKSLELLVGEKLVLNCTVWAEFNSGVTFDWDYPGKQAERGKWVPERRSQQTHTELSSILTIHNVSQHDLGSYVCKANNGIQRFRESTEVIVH
Assay: receptor-Fc IP
MEASURE_NAME: binding result

Task item: For 84-11 (ligand) AHYNTEILKFMDVYQRSYCHPIETLVDIFQEFGVATNTFFKPSCVPLMRCGGCCNSEGLQCVPTEESNITMQIMRITVPLSQGPKPVTISFLQHNKCECRPKKD , write its binding result.
Reply: binds

Task item: Quickly give me recorded binding result for 82-11 (ligand) AHYNTEILKFMDVYQRSYCHPIETLVDIFQEFGVATNTFFKPPCVSVYRCGGCCNSEGLQCVPTEESNITMQIMRITVPLSQGPKPVTISFLQHNKCECRPKKD
Reply: binds
